Molecular target: SARS-CoV-2 NSP3 macrodomain (Mac1) (Severe acute respiratory syndrome coronavirus 2, UniProt P0DTD1)
Assay type: binding
Settings: crystal soak 10 mM; TFA/DMSO background map
For each record, write down the corresponding PanDDA run, TFA/DMSO background map: 1-BDC.
No unit in the answer, only the number.

For OCC(COCc1ccccc1)Nc1ncnc2[nH]ccc12 (stereo not shown) the compound record lists PanDDA run, TFA/DMSO background map: 1-BDC as 0.16

For O=C(O)C(F)(F)F.OC1([C@H]2CCCN2c2ncnc3[nH]ccc23)Cc2ccccc2C1 the compound record lists PanDDA run, TFA/DMSO background map: 1-BDC as 0.14

For O=C(O)C(F)(F)F.OCC1(Nc2ncnc3[nH]ccc23)CCC1 the compound record lists PanDDA run, TFA/DMSO background map: 1-BDC as 0.12

For OCC(CC1CC1)Nc1ncnc2[nH]ccc12 (stereo not shown) the compound record lists PanDDA run, TFA/DMSO background map: 1-BDC as 0.09

For OCC(Nc1ncnc2[nH]ccc12)C1CC1 (stereo not shown) the compound record lists PanDDA run, TFA/DMSO background map: 1-BDC as 0.16

For CCCC(CO)Nc1ncnc2[nH]ccc12 (stereo not shown) the compound record lists PanDDA run, TFA/DMSO background map: 1-BDC as 0.14

For C[C@@H](O)[C@H](CO)Nc1ncnc2[nH]ccc12.O=C(O)C(F)(F)F the compound record lists PanDDA run, TFA/DMSO background map: 1-BDC as 0.12

For Cn1cc(CC(CO)Nc2ncnc3[nH]ccc23)cn1 (stereo not shown) the compound record lists PanDDA run, TFA/DMSO background map: 1-BDC as 0.09

For CCC(Nc1ncnc2[nH]ccc12)C(C)(C)O (stereo not shown) the compound record lists PanDDA run, TFA/DMSO background map: 1-BDC as 0.07

For OCC(Cc1c[nH]c2ccccc12)Nc1ncnc2[nH]ccc12 (stereo not shown) the compound record lists PanDDA run, TFA/DMSO background map: 1-BDC as 0.11

====

Molecular target: SARS-CoV-2 NSP3 macrodomain (Mac1) (Severe acute respiratory syndrome coronavirus 2)
Assay: biochemical
Assay type: binding
Conditions: SARS CoV-2 macrodomain HTRF assay, single dose concentration 200 μM; read-out: Average % competition
experimentalReadout: inhibition at 200 µM (%)
Reply numerically in %, unit not repeated.

For CC(C)(C)C1CCC(CO)N(c2ncnc3[nH]ccc23)C1 (stereo not drawn) the compound record lists inhibition at 200 µM as 36

For OCC1CC2(CCC2)CN1c1ncnc2[nH]ccc12 (stereo not drawn) the compound record lists inhibition at 200 µM as 79

For OCC1COCCN1c1ncnc2[nH]ccc12 (stereo not drawn) the compound record lists inhibition at 200 µM as 62

====

Target: SARS-CoV-2 NSP3 macrodomain (Mac1) (Severe acute respiratory syndrome coronavirus 2)
Format: binding
Conditions: stereoisomer(s) modeled as bound, residues 201/202/203
experimentalReadout: Isomers modeled

molecule: OC[C@@H]1C[C@@H]2CCC[C@@H]2N1c1ncnc2[nH]ccc12
Isomers modeled: SSS

molecule: O=C(O)C(F)(F)F.OC[C@@H]1CC2(CC2)CN1c1ncnc2[nH]ccc12
Isomers modeled: S,S

molecule: OCC(Cc1c[nH]c2ccccc12)Nc1ncnc2[nH]ccc12 (stereo not shown)
Isomers modeled: R,S

molecule: OCC1CC2(CCC2)CN1c1ncnc2[nH]ccc12 (stereo not shown)
Isomers modeled: S,S

molecule: O[C@H]1CC[C@@H]2CCN(c3ncnc4[nH]ccc34)[C@@H]21
Isomers modeled: SRS

For CC1(C)CCC(CO)N(c2ncnc3[nH]ccc23)C1 (stereo not shown) the molecule record lists Isomers modeled as R,R,S

For Cc1ccc(CC(CO)Nc2ncnc3[nH]ccc23)cc1C (stereo not shown) the molecule record lists Isomers modeled as R,S

====

Biological target: SARS-CoV-2 NSP3 macrodomain (Mac1) (Severe acute respiratory syndrome coronavirus 2)
Assay: biochemical
Assay type: binding
experimentalReadout: Average % competition

For c1ccn2c(Sc3ncnc4ccsc34)nnc2c1 [AVI-308] the compound record lists Average % competition as 0%

For CC1c2ccsc2CCN1C(=O)Cc1csc(-c2ccccc2)n1 (centres unmarked) [AVI-287] the compound record lists Average % competition as 0%

For CNC(=O)c1ccc(NC(=O)C2CC(=O)Nc3ccccc32)cc1 (centres unmarked) [AVI-305] the compound record lists Average % competition as 0%

For Cc1ccc2c(c1)C(=O)N(CCC(=O)Nc1cnc3c(c1)c(C)nn3C)C2=O [AVI-301] the compound record lists Average % competition as 16%

For Cc1ccc(C)c(CN2C(=O)NC(C)(Cc3ccc4c(c3)OCO4)C2=O)c1 (centres unmarked) [AVI-320] the compound record lists Average % competition as 18%

For CNS(=O)(=O)c1cc(C(=O)N2CCOc3ccccc32)n(C)c1 [AVI-309] the compound record lists Average % competition as 0%

For COc1ccc(-c2nccc(N3CCC(c4ccsc4)CC3)n2)cc1 [AVI-344] the compound record lists Average % competition as <10%

For O=C(NCCCN1C(=O)NC2(CCCC2)C1=O)c1ccc(=O)[nH]c1 [AVI-300] the compound record lists Average % competition as 8%

For Nc1ncnc(N2CCC(C(F)(F)F)C3(CCC3)C2)c1Cl (centres unmarked) [AVI-324] the compound record lists Average % competition as <10%

For CC(OC(=O)c1ccc2nc(N)sc2c1)C(=O)N1CCCCCC1 (centres unmarked) [AVI-304] the compound record lists Average % competition as 0%

For CC(NC(=O)c1ccc(N)nc1Cl)C(O)c1cccc(F)c1 (centres unmarked) [AVI-349] the compound record lists Average % competition as 15%

For Cc1nnc2n1CCN(C(=O)CN1C(=O)CCOc3ccccc31)C2 [AVI-302] the compound record lists Average % competition as 0%

For CC1CCCC1OC(=O)Cn1cnc2c1c(=O)n(C)c(=O)n2C (centres unmarked) [AVI-335] the compound record lists Average % competition as <10%

For NC(=O)N1CCC[C@H]1C(=O)Nc1ccc2ncnn2c1 [AVI-330] the compound record lists Average % competition as 14%

For CC1(c2ccc(F)cc2)CN(C(=O)c2cnc(N)nc2C(F)(F)F)C1 [AVI-340] the compound record lists Average % competition as 20%

For CCOc1ccc(-c2nc(CC(=O)N3CCn4cccc4C3C)cs2)cc1 (centres unmarked) [AVI-325] the compound record lists Average % competition as 0%

For O=C(O)c1ccc2c(c1)C(NC(=O)C1CCn3ncnc3C1)CCC2 (centres unmarked) [AVI-333] the compound record lists Average % competition as 21%

For Cc1ccc(N2CCN(c3ncnc(-c4ccccc4)n3)CC2=O)cc1 [AVI-336] the compound record lists Average % competition as <10%

For CC(C(=O)NCc1c(C(=O)O)[nH]c2ccccc12)n1cncn1 (centres unmarked) [AVI-337] the compound record lists Average % competition as 14%

For O=C1CC(C(=O)Nc2nc3c(s2)CCCC3)c2ccccc2N1 (centres unmarked) [AVI-307] the compound record lists Average % competition as 0%

====

Target: SARS-CoV-2 NSP3 macrodomain (Mac1) (Severe acute respiratory syndrome coronavirus 2)
Experiment: biochemical
Format: binding
Conditions: SARS CoV-2 macrodomain HTRF assay
For each record, write down the corresponding pKi.
Note: pKi values are expressed as the negative base-10 logarithm of concentration in M.

For O=C(O)C(F)(F)F.OCC1(Nc2ncnc3[nH]ccc23)CCC1 the compound record lists pKi as 4.44

For OC1(CNc2ncnc3[nH]ccc23)CCOCC1 the compound record lists pKi as 3.68

For OC1(CNc2ncnc3[nH]ccc23)CCCC(C(F)(F)F)C1 (centres unmarked) the compound record lists pKi as 3.85

For OC1(CNc2ncnc3[nH]ccc23)CCSCC1 the compound record lists pKi as 3.80

For CN(CC1(O)CCOCC1)c1ncnc2[nH]ccc12 the compound record lists pKi as 4.18

For CC1(C)CCC(O)(CNc2ncnc3[nH]ccc23)CC1 the compound record lists pKi as 4.15

For CC(c1ccccc1)C(CO)Nc1ncnc2[nH]ccc12 (centres unmarked) the compound record lists pKi as 5.09

For Cc1c[nH]c2ncnc(NCC(C)(C)O)c12 the compound record lists pKi as 4.59

For Cc1c[nH]c2ncnc(NCC3(O)CCC(C)(C)CC3)c12 the compound record lists pKi as 3.21

For OC1(CNc2ncnc3[nH]ccc23)CCC(F)(F)CC1 the compound record lists pKi as 3.89

For Cc1c[nH]c2ncnc(NCC3(O)CCOCC3)c12 the compound record lists pKi as 3.82

====

For each record, write down the corresponding Number of isomers bound.
Target: SARS-CoV-2 NSP3 macrodomain (Mac1) (Severe acute respiratory syndrome coronavirus 2)
Type: binding
Conditions: ligand modeling, Mac1 crystal soak
No unit in the answer, only the number.

For OCC(Nc1ncnc2[nH]ccc12)C1CCc2ccccc21 (centres unmarked) the compound record lists Number of isomers bound as 2

For C#CCC(CO)Nc1ncnc2[nH]ccc12 (centres unmarked) the compound record lists Number of isomers bound as 1

For OCC1CC2(CCC2)CN1c1ncnc2[nH]ccc12 (centres unmarked) the compound record lists Number of isomers bound as 1

For CCC(Nc1ncnc2[nH]ccc12)C(C)(C)O (centres unmarked) the compound record lists Number of isomers bound as 1

For OCC(Cc1ccoc1)Nc1ncnc2[nH]ccc12 (centres unmarked) the compound record lists Number of isomers bound as 1

For OCC(Nc1ncnc2[nH]ccc12)c1ccccc1 (centres unmarked) the compound record lists Number of isomers bound as 1

For CCC(C)(CO)Nc1ncnc2[nH]ccc12 (centres unmarked) the compound record lists Number of isomers bound as 1

For CC(C)(O)[C@@H]1CCCN1c1ncnc2[nH]ccc12 the compound record lists Number of isomers bound as 1

For O[C@@H]1CN(c2ncnc3[nH]ccc23)C[C@H]1F the compound record lists Number of isomers bound as 1

For OCC1COCCN1c1ncnc2[nH]ccc12 (centres unmarked) the compound record lists Number of isomers bound as 2

For O[C@H]1CC[C@@H]2CCN(c3ncnc4[nH]ccc34)[C@@H]21 the compound record lists Number of isomers bound as 1
